Data provenance is patent US20070117743A1.

Tested on: LoVo
Assay: SRB colorimetric assay of cell growth and viability, LoVo
Assay type: cell-based, human
Conditions: 48 hours exposure, SRB
measurementName: GI50 (nM)
Answers are plain numbers, in nM.

{"compound": "C/C=C1\\NC(=O)[C@H](Cc2ccc(F)cc2)NC(=O)[C@@H](C(C)C)NC(=O)[C@@H]([C@@H](C)CC)NC(=O)[C@H](NC(=O)[C@H](NC(=O)[C@H](CCCN)NC(=O)[C@H]2CCCN2C(=O)[C@H](NC(=O)[C@@H](NC(=O)[C@@H](NC(=O)[C@H](NC(=O)CC[C@@H](C)CC)C(C)C)[C@@H](C)O)C(C)C)C(C)C)[C@@H](C)CC)[C@@H](C)OC(=O)[C@H](C(C)C)NC1=O [Compound 74, [Phe(4-F)^3, (4S)-MeHex^14]-KF]", "testTarget": "LoVo", "measurementName": "GI50", "experimentalValue": 139}

API: the following record is the query input.
// C/C=C1\NC(=O)[C@H](Cc2ccccc2)N(C)C(=O)[C@@H](C(C)C)NC(=O)[C@@H]([C@@H](C)CC)NC(=O)[C@H](NC(=O)[C@H](NC(=O)[C@H](CCCN)NC(=O)[C@H]2CCCN2C(=O)[C@H](NC(=O)[C@@H](NC(=O)[C@@H](NC(=O)[C@H](NC(=O)CC[C@@H](C)CC)C(C)C)[C@@H](C)O)C(C)C)C(C)C)[C@@H](C)CC)[C@@H](C)OC(=O)[C@H](C(C)C)NC1=O [Compound 80, [NMePhe^3, (4S)-MeHex^14]-KF] : GI50 value = 125
